Just for reference, PubChem BioAssay (NCI) is where these values come from.

- System: UO-31 renal
- MEASUREMENT NOTES: NCI tumour cell line growth inhibition, 48 h
Here the recorded TGI is given for each entry.

# COMPOUND, ASSAY SYSTEM, VALUE KIND, OBSERVED MEASUREMENT
rows = [
    ("COC(=O)C(/C(=N/N)C(=O)Nc1ccc(C)c(C)c1)c1nc2ccc(Cl)cc2[nH]c1=O (stereo not given)", "UO-31 renal", "TGI", "> 100 µM"),
    ("COc1ccc(N2C(=O)C3c4[nH]c5ccccc5c4C4CCCCCCCC4C3C2=O)cc1 (stereo not given)", "UO-31 renal", "TGI", "> 10 µM"),
    ("CNc1nnnn1C1OC(CO)C(O)C1O (stereo not given)", "UO-31 renal", "TGI", "> 100 µM"),
    ("O=C1Nc2ccccc2C1(c1ccc(O)c(F)c1)c1ccc(O)c(F)c1", "UO-31 renal", "TGI", "42.8 µM"),
    ("Cc1cc(Cl)ccc1NC(=O)/C(Cl)=C(/Cl)C(=O)O", "UO-31 renal", "TGI", "> 100 µM"),
]

Task: Quick check: TGI of "COc1c(C(=O)/C(=N/Nc2ccccc2)C(C)=O)c(O)c(OC)c2occc12" ?
Result: 86.3 µM

Task: # get_value(readout='TGI', item= OC(c1ccsc1)c1cc2ccccc2s1 (stereo not given) )
Result: > 10 µM

* * *

- System: MDA-N
- MEASUREMENT NOTES: NCI tumour cell line growth inhibition, 48 h
VALUE KIND: TGI

Example results:
# COMPOUND, TGI
records = [
    ("Cc1nc2c(O)cccc2c(=O)[nH]1", "> 1000 µM"),
    ("O=C(N1CCOCC1)C1(c2ccccc2)CCNCC1", "> 100 µM"),
]

Task: Which measured TGI belongs to "COc1cc(CNc2nc3ccccc3nc2-c2cccs2)cc(OC)c1OC" , tested on MDA-N?
Result: 95.8 µM

Task: GET /values?readout=TGI&system=MDA-N&item= "COc1ccc(/C=C/C(=O)c2nc3ccccc3[nH]2)cc1"
Result: 32.9 µM

Task: API: value(readout=TGI, system=MDA-N) for record "Cn1c(=O)nc2n(CCO)ccnc-2c1=O"
Result: > 100 µM

Task: Request body: readout TGI, system MDA-N, query "CC1=Nc2nc3ccccc3n2C(C)(C)C1" . Return the value.
Result: > 100 µM

Task: Report TGI for C[C@@H]1CCC2[C@@H](C)[C@H](O[C@H]3O[C@@H]4O[C@@]5(C)CCC6[C@H](C)CCC([C@H]3C)[C@]64OO5)O[C@@H]3O[C@@]4(C)CCC1[C@@]23OO4 (stereo partly specified) tested on MDA-N.
Result: 19.2 µM

Task: Give recorded TGI with MDA-N for the following compound: "COc1ccc(C(=O)/C=C2\c3ccccc3C(=O)N2C)cc1"
Result: > 100 µM

Task: Could you share what TGI was measured for "C[C@@H](C(=O)O)c1ccc(-c2ccccc2)c(F)c1" , tested on MDA-N?
Result: > 100 µM

Task: Requested read-out TGI, target or system MDA-N, entry "COc1ccc2c(CC(=O)O)cc(=O)oc2c1"
Result: > 100 µM

Task: What is its TGI for MDA-N? Entry: "CC(=O)OCc1cccc(O)c1C(=O)CCC=C(C)C"
Result: > 100 µM

* * *

- System: SF-539 CNS
- MEASUREMENT NOTES: NCI tumour cell line growth inhibition, 48 h
Below, each entry is listed with its recorded TGI.

# MOLECULE, ASSAY SYSTEM, TGI
rows = [
    ("Cc1ccc(Cl)cc1Nc1nc(C(F)(F)F)ccc1C(=O)N/N=C/c1c(Cl)cccc1Cl", "SF-539 CNS", "5.05 µM"),
    ("O=C(CCc1nnc2s/c(=C\\c3ccc4c(c3)OCO4)c(=O)n12)Nc1cc(Cl)ccc1Cl", "SF-539 CNS", "> 100 µM"),
    ("Cc1c2ccccc2c(CO)c2cc(F)c3ccccc3c12", "SF-539 CNS", "> 100 µM"),
    ("Nc1nc(=O)n(C2CC(O)C(O)C(CO)O2)cc1F (stereo not drawn)", "SF-539 CNS", "> 100 µM"),
    ("Oc1ccc(-c2c3ccccc3c(-c3ccc(OCCBr)cc3)c3ccccc23)cc1", "SF-539 CNS", "32.4 µM"),
    ("Cc1[nH]c2ncn3ncnc3c2c1Cc1ccccc1", "SF-539 CNS", "> 100 µM"),
    ("C=C1C(=O)OC2C[C@H](C)C3CC(=O)C(C)=C3CC12 (stereo partly drawn)", "SF-539 CNS", "35 µM"),
    ("O=C(Nc1ccc(Cl)c(Cl)c1)C(=O)C(C1OC(=O)c2ccccc21)[N+](=O)[O-] (stereo not drawn)", "SF-539 CNS", "> 100 µM"),
]

Task: Record request: TGI value, item Nc1ncnc2c1c(-c1cccc(OCc3ccccc3)c1)cn2C1CC(CN2CCCC2)C1 (stereo not drawn)
Result: 3.02 µM

Task: Look at this molecule and give its reported TGI. "COC(=O)CSc1ccccc1"
Result: > 100 µM

Task: I have this molecule here, "O=C(c1ccccn1)c1nnn2ccccc12" , and I need its recorded TGI.
Result: > 100 µM

Task: // TGI lookup, key: CC(=O)Nc1ccc2c3c(cc(O)c2c1)N(C(=O)CCCC(=O)Nc1ccc2c4c(cc(O)c2c1)N(C(=O)OC(C)(C)C)CC4CCl)CC3CCl (stereo not drawn)
Result: > 50 µM

Task: GET /values?readout=TGI&item= "CN(C)CCCNC(=O)c1cc(NC(=O)CCNC(=O)c2ccc3c(c2)C(=O)c2ccccc2C3=O)cn1C"
Result: > 100 µM

* * *

- Test system: MCF7 breast
- MEASUREMENT NOTES: NCI tumour cell line growth inhibition, 48 h; in the data active = GI50 below about 0.43 µM; inactive = the rest
Lab note: assign the record to one of active, inactive

Look over these answered cases.
# COMPOUND, LABEL VALUE
rows = [
    ("CC(C)c1ccc2c(N=Nc3ccc(S(N)(=O)=O)cc3)c(O)[nH]c2c1", "inactive"),
    ("Cc1ccc(Cl)cc1Nc1nc(C(F)(F)F)ccc1C(=O)N/N=C/c1c(Cl)cccc1Cl", "inactive"),
    ("COc1ccccc1CNCCCN1C(=O)c2ccc3c4c(ccc(c24)C1=O)C(=O)N(CCCNCCCCNCCCCN)C3=O", "inactive"),
    ("C(=N/Nc1ncnc2nc[nH]c12)/c1ccccn1", "inactive"),
    ("COc1ccc(-c2cn(-c3ccc(Cl)cc3)c(=S)[nH]2)cc1OC", "inactive"),
]

Task: Please indicate how the test categorized COC1OCC(OS(=O)(=O)c2ccc(C)cc2)C(OC(=O)c2ccccc2)C1OC(=O)c1ccccc1 (stereo not given) .
Result: inactive

Task: Just curious, what result did "CCCN(CCC)c1ccc(C=O)cc1" get here?
Result: inactive

Task: Recorded test outcome, item "O=C(c1ccccc1)c1ccc(Cl)c([N+](=O)[O-])c1"
Result: inactive

Task: Per the assay record, what outcome was assigned to "O=C(Nc1ncc(Cc2ccccc2)s1)c1ccc2c(c1)OCCO2" ?
Result: active

Task: // return assay outcome for CCOC(=O)C1=C(N)Oc2c(sc3c(C)cccc23)C1c1ccc(Cl)cc1 (stereo not given)
Result: inactive

* * *

- Test system: SN12C renal
- MEASUREMENT NOTES: NCI tumour cell line growth inhibition, 48 h
# TGI annotations

These recorded examples may help you get a feel for the data.
# MOLECULE, VALUE KIND, OBSERVED MEASUREMENT
data = [
    ("COc1cc(-c2cc(/C=C/C(=O)c3ccc4c(c3)OCO4)[nH]n2)cc(OC)c1OC", "TGI", "> 100 µM"),
    ("CC1=NN(c2nc(N)nc(C(C)Sc3cc(Cl)c(C)cc3S(N)(=O)=O)n2)C(C)(C)C1 (stereo unspecified)", "TGI", "> 10 µM"),
    ("O=C1NC2OCC(O)C(O1)C2O (stereo unspecified)", "TGI", "> 100 µM"),
    ("O=C(O)Cn1nnc2c(=O)[nH][nH]c(=O)c21", "TGI", "> 100 µM"),
    ("NC(=O)NC(CC(=O)O)C(=O)O (stereo unspecified)", "TGI", "> 100 µM"),
]

Task: Entry "Oc1ccc2ccccc2c1-c1c(Nc2ccccc2)ccc2ccccc12" has what TGI?
Result: > 61.2 µM

Task: Request the reported TGI associated with "COc1ccc2nc3cccc([N+](=O)[O-])c3c(NCCN(CCO)CCO)c2c1"
Result: 0.443 µM

Task: Reported TGI, molecule "CN(C)CCCc1cccnc1" : ____
Result: > 100 µM

Task: Fill blank: measured TGI of the molecule "C#CC[C@@H]1C[C@]2(C)[C@H]3CC[C@@H]4[C@H]5[C@H](C(=C)C)CC[C@]5(C(=O)O)CC[C@@]4(C)[C@]3(C)CC[C@H]2C(C)(C)[C@H]1O" is ____.
Result: 11.6 µM

Task: // returns reported TGI for input CNc1nnnn1C1OC(CO)C(O)C1O (stereo unspecified)
Result: > 100 µM

Task: Data request, read-out TGI, for "O=C(c1ccccc1)c1ccc(Cl)c([N+](=O)[O-])c1"
Result: 14.8 µM
